Just for reference, PubChem BioAssay AID1963871 is where these values come from.

Test system: KRAS-mutant PDC multicell tumor spheroid viability;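 also: viability read after seven days of drug exposure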
ASSAY_PROTOCOL: Anticancer human tumor 521955-158-R2-J5-PDC patient-derived pancreatic carcinoma cell line growth inhibition [KRAS2]
CONDITION_SET: second compound 10 µM; first compound 0.0316 µM; hits give low values
ASSAY_ENDPOINT: viability, T/C (%)
Give bare numbers, in %.

Worked examples, 4 molecules total:
MOLECULE	SYSTEM_NAME	ASSAY_ENDPOINT	MEASUREMENT_UNITS	ENDPOINT_RESULT
CCNC(=O)CC1N=C(c2ccc(Cl)cc2)c2cc(OC)ccc2-n2c(C)nnc21 (stereo not given) + COc1cc2nc(C)nc(NC(C)c3cc(N)cc(C(F)(F)F)c3)c2cc1OC1CCOC1	KRAS-mutant PDC multicell tumor spheroid viability	viability, T/C	%	105
COC(=O)c1ccc2c(C(=Nc3ccc(N(C)C(=O)CN4CCN(C)CC4)cc3)c3ccccc3)c(O)[nH]c2c1 + CNCc1ccccc1-c1csc(C(C)Nc2nc(C)nc3cc(OC)c(OC)cc23)c1	KRAS-mutant PDC multicell tumor spheroid viability	viability, T/C	%	0.14
CN(C)C/C=C/C(=O)Nc1cc2c(Nc3ccc(F)c(Cl)c3)ncnc2cc1O[C@H]1CCOC1 + CC1OCC2(CCN(c3cnc(Sc4ccnc(N)c4Cl)c(N)n3)CC2)C1N	KRAS-mutant PDC multicell tumor spheroid viability	viability, T/C	%	80.8
COc1cc(Nc2ncc3c(n2)-c2ccc(Cl)cc2C(c2c(F)cccc2OC)=NC3)ccc1C(=O)O + C=CC(=O)N1CCN(c2nc(=O)n(-c3c(C)ccnc3C(C)C)c3nc(-c4c(O)cccc4F)c(F)cc23)C(C)C1	KRAS-mutant PDC multicell tumor spheroid viability	viability, T/C	%	40.6

Which measured viability, T/C value corresponds to Cn1nccc1Nc1nccc(-c2cc3c(s2)C(C)(C)N(CCN2CCOCC2)C3=O)n1 + CC1OCC2(CCN(c3cnc(Sc4ccnc(N)c4Cl)c(N)n3)CC2)C1N ?
50.9
